- System: clinical strains of HIV-1
- Assay explanation: AZT and ddI sensitivity of clinical strains of HIV-1 (Table 3)
- Type: cell-based
- Measurement setup: isolate BAKI, tropism L; read-out: ddi IC50
Measured property: pIC50
For clarity, pIC50 is expressed as the negative log10 of concentration in mol/L.

Query: Identify the measured pIC50 of O=c1[nH]cnc2c1ncn2[C@H]1CC[C@@H](CO)O1 [ddi, dideoxyinosine] for clinical strains of HIV-1.
Reply: 5.58

====

- System: clinical strains of HIV-1
- Assay explanation: AZT and ddI sensitivity of clinical strains of HIV-1 (Table 3)
- Type: cell-based
- Measurement setup: Human immunodeficiency virus 1, isolate DEJO, tropism L; read-out: AZT IC50
Measured property: pIC50
Quick note: pIC50 means taking -log10 of the concentration in moles per liter.

Query: Return reported pIC50; argument: Cc1cn([C@H]2C[C@H](N=[N+]=[N-])[C@@H](CO)O2)c(=O)[nH]c1=O [AZT, 3′-azido-3′-deoxythymidine]
Reply: 7.82

====

- System: clinical strains of HIV-1
- Assay explanation: AZT and ddI sensitivity of clinical strains of HIV-1 (Table 3)
- Format: cell-based
- Measurement setup: Human immunodeficiency virus 1, isolate BAKI, tropism L; read-out: AZT IC50
Measured property: pIC50
# pIC50 = -log10(concentration in molar units)

Query: // pIC50 lookup, key: Cc1cn([C@H]2C[C@H](N=[N+]=[N-])[C@@H](CO)O2)c(=O)[nH]c1=O
Reply: 7.31

====

- Test system: clinical strains of HIV-1
- Assay explanation: AZT and ddI sensitivity of clinical strains of HIV-1 (Table 3)
- Assay type: cell-based
- Measurement setup: Human immunodeficiency virus 1, isolate ROJO, tropism L; read-out: AZT IC50
Measured property: IC50 (nM)
Lab book: enter the figure in nM, no units written.

Query: // query IC50 value for entry Cc1cn([C@H]2C[C@H](N=[N+]=[N-])[C@@H](CO)O2)c(=O)[nH]c1=O
Reply: 16

====

- System: clinical strains of HIV-1
- Assay explanation: AZT and ddI sensitivity of clinical strains of HIV-1 (Table 3)
- Type: cell-based
- Measurement setup: isolate WEJO, tropism L; read-out: ddi IC50
- Experimental: To determine the preclinical range of anti-HIV activity of various oligonucleotides of the invention (see TABLE 2), evaluations were performed with Oligo 12 (having SEQ ID NO:1), Oligo 32 (SEQ ID NO:3) and Oligo 41 (SEQ ID NO:6). […]
Measured property: IC50 (nM)
Report only the number, with the unit nM understood.

Query: # returns recorded IC50 (system: clinical strains of HIV-1) for O=c1[nH]cnc2c1ncn2[C@H]1CC[C@@H](CO)O1 [ddi, dideoxyinosine]
Reply: 2180

====

- Tested on: clinical strains of HIV-1
- Assay explanation: AZT and ddI sensitivity of clinical strains of HIV-1 (Table 3)
- Type: cell-based
- Measurement setup: Human immunodeficiency virus 1, isolate ROMA, tropism M; read-out: AZT IC50
Measured property: IC50 (nM)
Note: unit nM is implicit; provide only the numeric part.

Query: # lookup: IC50 of Cc1cn([C@H]2C[C@H](N=[N+]=[N-])[C@@H](CO)O2)c(=O)[nH]c1=O
Reply: 16

====

- Tested on: clinical strains of HIV-1
- Assay explanation: AZT and ddI sensitivity of clinical strains of HIV-1 (Table 3)
- Format: cell-based
- Measurement setup: Human immunodeficiency virus 1, isolate TEKI, tropism L; read-out: AZT IC50
Measured property: pIC50
Scale: negative log10 of molar concentration, which is what pIC50 denotes.

Query: // map Cc1cn([C@H]2C[C@H](N=[N+]=[N-])[C@@H](CO)O2)c(=O)[nH]c1=O [AZT, 3′-azido-3′-deoxythymidine] to recorded pIC50 (system: clinical strains of HIV-1)
Reply: 7.54

====

- Tested on: clinical strains of HIV-1
- Assay explanation: AZT and ddI sensitivity of clinical strains of HIV-1 (Table 3)
- Format: cell-based
- Measurement setup: isolate VIHU, tropism L; read-out: ddi IC50
Measured property: pIC50
The read-out pIC50 is expressed as -log10 of concentration in moles per litre.

Query: Given the molecule O=c1[nH]cnc2c1ncn2[C@H]1CC[C@@H](CO)O1 [ddi, dideoxyinosine] , what is its reported pIC50?
Reply: 5.92
